The reported numbers originate from PubChem BioAssay (NCI).

growth listing for selected compounds.
- Test system: SNB-75 CNS
- assay_summary: NCI-60 one-dose screen, 48 h (100 = growth as untreated, 0 = no growth, -100 = all killed)
- particulars: 10 µM unless noted
This is part of a sample that, as a whole, favours compounds with a hit. Of some 83,000 tested, about 20% had one in any assay.
All answers are understood in %, so give the number only.

What value of measured growth is listed for O=C(NCCNc1cc(-c2cn(-c3ccccc3)nc2-c2cccc(O)c2)ccn1)Nc1ccc(Cl)c(C(F)(F)F)c1 ? 42.8

---

Reported growth values for a set of compounds
- Test system: TK-10 renal
- assay_summary: NCI-60 one-dose screen, 48 h (100 = growth as untreated, 0 = no growth, -100 = all killed)
- particulars: 10 µM unless noted
Compounds without any hit were thinned out: in the full panel of roughly 83,000, 20% have a hit.
// note: answer is a bare numeric in %

Give recorded growth with TK-10 renal for the following compound: O=c1[nH]c(CCl)nc2c1cnn2-c1ccccc1 154

Now consider Cc1cc(=O)n2nc(-c3c[nH]c4ccccc34)sc2n1 and answer again. 128

---

Listed next: entries and their corresponding growth.
- Tested on: TK-10 renal
- assay_summary: NCI-60 one-dose screen, 48 h (100 = growth as untreated, 0 = no growth, -100 = all killed)
- particulars: 10 µM unless noted
About 83,000 compounds went through this panel and 20% of them were active in at least one assay; those are over-represented in the sample as a whole.
Dear colleague, please return just the value in %, with no unit written.

Would you please look over these solved cases?
1) Cn1cc(-c2nn3cc(-c4cccnc4)nc3s2)c2ccccc21 : 80.5
2) Brc1cccc(/C=N/Nc2nc(N/N=C/c3cccc(Br)c3)nc(N3CCOCC3)n2)c1 : 66.8
3) O=C(NNc1nc2cc(F)cc(F)c2n2cccc12)c1ncccn1 : 26
4) O=C(Cn1cc(CN2C(=O)c3ccc([N+](=O)[O-])cc3C2=O)nn1)Nc1ccc(F)cc1Cl : 91.2
5) Oc1ccc(CSc2nnc(-c3ccc(Br)cc3)o2)c2cccnc12 : 60

Quick one: growth for Cc1cc(C(=O)Nc2ccc(SC#N)cc2)c(C)o1 ? 101

O=S(=O)(Nc1ccc(-c2nc(-c3cccc(O)c3)c(-c3ccnc(Br)c3)[nH]2)cc1)c1ccccc1 ? 55.7

Okay, and CCOC(=O)c1c(NC(=O)c2ccc(C(C)(C)C)cc2)sc2cc(OCCN3CCCCC3)ccc12 ? 112

Okay, and O=C(Cn1cc(CN2C(=O)c3ccc([N+](=O)[O-])cc3C2=O)nn1)Nc1ccccc1Br ? 104

Query O=C1c2c(c3c4ccc(Br)cc4oc3c3[nH]c4ccccc4c23)C(=O)N1CCO next 107

---

- Test system: TK-10 renal
- assay_summary: NCI-60 one-dose screen, 48 h (100 = growth as untreated, 0 = no growth, -100 = all killed)
- particulars: 10 µM unless noted
The panel holds about 83,000 compounds, 20% with a hit somewhere; the sample as a whole holds those more often.
measurement_kind: growth (%)
Your answer is read as %, so omit the unit and give the number.

Use these answered entries as a reference point.
1) CCNC(=O)Oc1ccc(/C(=C(/C)c2ccc(Cl)cc2)c2ccc(OCCN3CCCC3)cc2)cc1 : 97.6
2) COc1ccc([C@H]2c3[nH]c4ccccc4c3C[C@@H]3C(=O)N(C4CCN(Cc5ccccc5)CC4)CC(=O)N23)c(OC)c1 : 103
3) C=CCn1c(SCC(=O)Nc2ccc(OC)cc2)nnc1-c1ccc(Cl)cc1 : 97.9

Please report the recorded growth for CS(=O)(=O)c1nccc(-c2c(-c3ccc(F)c(OCc4ccccc4)c3)nc3sccn23)n1 . 101

Now this one: C#CCOc1ccc(C(Nc2ccc(Cl)cc2)c2nnnn2C2CCCCC2)cc1 (centres undefined) 95

Cool, now COc1cc(/C=C/C(=O)c2ccc(N3CCN(C)CC3)cc2)ccc1F 124

Another compound to look at: CC(C)=CCC[C@](C)(O)[C@H]1CC[C@]2(C)[C@@H]1CC[C@@H]1[C@@]3(C)CCC(NC(=O)c4ccccc4C(=O)O)C(C)(C)[C@@H]3CC[C@]12C (some centres undefined) 106

Next record, please: CCN(CC)Cc1c(-c2cccc(OC(F)(F)F)c2)[nH]c2ccc(N3CCCC3)cc2c1=O 124

Can you handle O=[N+]([O-])c1ccc(-c2nnc(SCc3ccc(O)c4ncccc34)o2)cc1 next? 29.2

CCN1C/C(=N\S(=O)(=O)c2ccccc2)N(CC)C1=S , same question. 100

What do you get for Cc1ccc(-c2cc(-c3ccc(N(C)C)cc3)n3c(n2)nc2ccccc23)cc1 ? 61.1
